Where do these numbers come from? They come from patent US7893220B2.

# System: busulfan antibodies (antisera of example 7)
# ASSAY_TEXT: Indirect competitive microtiter plate immunoassay (ELISA), busulfan derivative 11-BSA sensitized plates
# Type: binding, mouse
# STUDY_CONDITIONS: antibodies to Busulfan-KLH (example 7); plate coating Busulfan-BSA conjugate example 6, derivative 11; ratio of IC50 busulfan to IC50 analyte
# Experimental: Ten Female BALB/c mice were immunized i.p. with 100 μg/mouse of Busulfan-BTG immunogen prepared in example 3 or with Busulfan-KLH immunogen prepared in example 4, emulsified in Complete Freund's Adjuvant. Mice were boosted once four weeks after the initial injection with 100 μg/mouse of the same immunogens emulsified in Incomplete Freund's Adjuvant. […] The anti-serum from these test bleeds contained Busulfan antibodies evaluated in Examples 9 , 10a and 10b. […]
ENDPOINT_NAME: Cross-Reactivity of Competitive Immunoassay

COMPOUND: CS(=O)(=O)OCCCCOS(C)(=O)=O
MEASURED: 100%

COMPOUND: C1CCSC1 [Tetrahydrothiophene, tetrahydrothiophene]
MEASURED: <0.24%

COMPOUND: O=S1(=O)CCC(O)C1 (stereo not shown) [Tetrahydrothiophene-3-ol-1,1-dioxide, tetrahydrothiophene-3-ol-1,1-dioxide]
MEASURED: <0.24%

COMPOUND: O=S1(=O)CCCC1
MEASURED: <0.24%
